- Tested on: rat bladder strip
- TEST PROTOCOL: in vitro rat bladder strip model: inhibition of 10 μM carbachol induced contraction
- RUN PARAMETERS: 1 h; test compound at 3 μM, one hour incubation; 10 μM carbachol induced contraction of rat bladder strip; percent inhibition over controls, normalized for vehicle effects
Here the recorded inhibition at 3 µM is given for each entry.

STRUCTURE | inhibition at 3 µM
CC=Cc1cc(Cl)cc(-n2nc(-c3ccc(Br)s3)[nH]c2=O)c1O | 20 to 35%
O=c1[nH]c(-c2scc(Cl)c2Cl)nn1-c1cc(Cl)ccc1O | 35 to 50%
O=c1[nH]c(-c2ccc(Br)s2)nn1-c1cc(Cl)ccc1O | 35 to 50%
O=c1[nH]c(-c2cc(Br)c(Br)s2)nn1-c1cc(Cl)ccc1O | 5 to 20%
Cc1sc(-c2nn(-c3cc(Cl)ccc3O)c(=O)[nH]2)cc1Br | 20 to 35%
O=c1[nH]c(-c2cc(Cl)sc2Cl)nn1-c1cc(Cl)ccc1O | 35 to 50%
O=c1[nH]c(-c2ccc(I)s2)nn1-c1cc(Cl)ccc1O | 35 to 50%
O=c1[nH]c(-c2cc(Br)c(Cl)s2)nn1-c1cc(Cl)ccc1O | 20 to 35%
O=c1[nH]c(-c2ccc(Cl)s2)nn1-c1cc(Br)ccc1O | 20 to 35%
O=c1[nH]c(-c2ccc(Br)s2)nn1-c1cc(Cl)cc(Cl)c1O | 20 to 35%
O=c1[nH]c(-c2sc(Br)c(Br)c2Br)nn1-c1cc(Cl)ccc1O | 5 to 20%
O=c1[nH]c(-c2cc(Br)sc2Br)nn1-c1cc(Cl)ccc1O | 20 to 35%
O=c1[nH]c(-c2cc(Cl)cs2)nn1-c1cc(Cl)ccc1O | 35 to 50%
